Measured alamarBlue assay OD 570 nm-600 nm, listed per entry.
test system: Human umbilical vein endothelial cells (HUVEC); assay: alamarBlue viability assay in HUVECs; type: cell-based; conditions: 2500 nM, 72 h, normoxia

mol-smiles: COc1cc(F)c(C(C)C)cc1-c1ccc(C(F)(F)F)cc1CN1C(=O)O[C@H](c2cc(C(F)(F)F)cc(C(F)(F)F)c2)[C@@H]1C
tested-target: Human umbilical vein endothelial cells (HUVEC)
alamarBlue assay OD 570 nm-600 nm: 0.0846
//
mol-smiles: CCOC(=O)N1c2ccc(C(F)(F)F)cc2[C@@H](N(Cc2cc(C(F)(F)F)cc(C(F)(F)F)c2)C(=O)OC)C[C@H]1CC
tested-target: Human umbilical vein endothelial cells (HUVEC)
alamarBlue assay OD 570 nm-600 nm: 0.0138
//
mol-smiles: CCc1cc(CCN(Cc2ccc(C(C)(C)C)cc2)C(=O)c2cc(C(F)(F)F)cc(Cl)c2F)ccc1Cl
tested-target: Human umbilical vein endothelial cells (HUVEC)
alamarBlue assay OD 570 nm-600 nm: 0.1512
//
mol-smiles: Cc1cc(C)c2c(c1)[C@@H](N(Cc1cc(C(F)(F)F)cc(C(F)(F)F)c1)c1nnn(C)n1)CCCN2C[C@H]1CC[C@H](C(=O)O)CC1
tested-target: Human umbilical vein endothelial cells (HUVEC)
alamarBlue assay OD 570 nm-600 nm: −0.0107

###

test system: Human umbilical vein endothelial cells (HUVEC); test: alamarBlue viability assay in HUVECs; type: cell-based; conditions: 10.2 nM, 72 h, normoxia
reported-endpoint: alamarBlue assay OD 570 nm-600 nm

mol-smiles: CCc1cc(CCN(Cc2ccc(C(C)(C)C)cc2)C(=O)c2cc(C(F)(F)F)cc(Cl)c2F)ccc1Cl
tested-target: Human umbilical vein endothelial cells (HUVEC)
reported-endpoint: alamarBlue assay OD 570 nm-600 nm
observed-measurement: 0.0075
--
mol-smiles: COc1cc(F)c(C(C)C)cc1-c1ccc(C(F)(F)F)cc1CN1C(=O)O[C@H](c2cc(C(F)(F)F)cc(C(F)(F)F)c2)[C@@H]1C
tested-target: Human umbilical vein endothelial cells (HUVEC)
reported-endpoint: alamarBlue assay OD 570 nm-600 nm
observed-measurement: 0.0170
--
mol-smiles: Cc1cc(C)c2c(c1)[C@@H](N(Cc1cc(C(F)(F)F)cc(C(F)(F)F)c1)c1nnn(C)n1)CCCN2C[C@H]1CC[C@H](C(=O)O)CC1
tested-target: Human umbilical vein endothelial cells (HUVEC)
reported-endpoint: alamarBlue assay OD 570 nm-600 nm
observed-measurement: 0.0158
--
mol-smiles: CCOC(=O)N1c2ccc(C(F)(F)F)cc2[C@@H](N(Cc2cc(C(F)(F)F)cc(C(F)(F)F)c2)C(=O)OC)C[C@H]1CC
tested-target: Human umbilical vein endothelial cells (HUVEC)
reported-endpoint: alamarBlue assay OD 570 nm-600 nm
observed-measurement: −0.0004

###

System: Human umbilical vein endothelial cells (HUVEC)
Test: alamarBlue viability assay in HUVECs
Assay type: cell-based
Conditions: 160 nM, 72 h, hypoxia
From the text: Human umbilical vein endothelial cells (HUVEC), the growth medium EGM and the basal medium EBM was obtained from Lonza. Additional FCS for the starving medium was used form Invitrogen. The viability assay with alamarBlue® from Invitrogen was done in 96 well gelatin coated plates from BD. […] HUVECs cells were maintained in Endothial growth medium (EGM) until Passage 5. […] The absorbance has been detected at 570 nm with a reference wavelength of 600 nm.
Entries and their alamarBlue assay OD 570 nm-600 nm values follow.
reported-endpoint: alamarBlue assay OD 570 nm-600 nm

mol-smiles: Cc1cc(C)c2c(c1)[C@@H](N(Cc1cc(C(F)(F)F)cc(C(F)(F)F)c1)c1nnn(C)n1)CCCN2C[C@H]1CC[C@H](C(=O)O)CC1
reported-endpoint: alamarBlue assay OD 570 nm-600 nm
observed-measurement: 0.0168
//
mol-smiles: CCOC(=O)N1c2ccc(C(F)(F)F)cc2[C@@H](N(Cc2cc(C(F)(F)F)cc(C(F)(F)F)c2)C(=O)OC)C[C@H]1CC
reported-endpoint: alamarBlue assay OD 570 nm-600 nm
observed-measurement: 0.0137
//
mol-smiles: COc1cc(F)c(C(C)C)cc1-c1ccc(C(F)(F)F)cc1CN1C(=O)O[C@H](c2cc(C(F)(F)F)cc(C(F)(F)F)c2)[C@@H]1C
reported-endpoint: alamarBlue assay OD 570 nm-600 nm
observed-measurement: −0.0022
//
mol-smiles: CCc1cc(CCN(Cc2ccc(C(C)(C)C)cc2)C(=O)c2cc(C(F)(F)F)cc(Cl)c2F)ccc1Cl
reported-endpoint: alamarBlue assay OD 570 nm-600 nm
observed-measurement: 0.0233

Measured values drawn from patent US20170035708A1 for this set.
